Numbers sourced from the supplement of paper PMC9233669.

System: biotinyl-Phe-oxazolone
testSummary: self-aminoacylation, catalytic enhancement (BFO) (fold over background); higher = more active; k-Seq, kA / k0A0; sequences stand for … in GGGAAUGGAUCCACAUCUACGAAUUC…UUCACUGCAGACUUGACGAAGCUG
This sample holds only a part of the variants without activity.
reportedEndpoint: self-aminoacylation
// response body must contain only the number

seqText: CCACACUUCAAGAAAUCGGGC [Fam1B.1 aminoacylation ribozyme variant]
self-aminoacylation: 1.14

self-aminoacylation recorded for this sequence, CCACACUUCAUGCAAGCGGUC [Fam1B.1 aminoacylation ribozyme variant] , is 0.633

Quick note, self-aminoacylation for AUUACCCUAGUCAUCAAGUGA [Fam2.1 aminoacylation ribozyme variant] landed at 11.2
